Tested on: SF268
Assay: HSA synergy score (Combenefit); higher = more synergy
Conditions: exposure time: 72 h
Please provide measured HSA synergy score for the entries that follow.
API doc: respond with a numeric literal and nothing else, no unit.

Problem: Identify the measured HSA synergy score of CO[C@H]1C[C@@H]2CC[C@@H](C)[C@@](O)(O2)C(=O)C(=O)N2CCCC[C@H]2C(=O)O[C@H]([C@H](C)C[C@@H]2CC[C@@H](O)[C@H](OC)C2)CC(=O)[C@H](C)/C=C(\C)[C@@H](O)[C@@H](OC)C(=O)[C@H](C)C[C@H](C)/C=C/C=C/C=C/1C [Rapamycin] + Cc1cc([C@@H](C)Nc2ccccc2C(=O)O)c2nc(N3CCOCC3)cc(=O)n2c1 [AZD6482] for SF268.
Solution: 3.85

Problem: Identify the measured HSA synergy score of CC(=O)O[C@@]12CO[C@@H]1C[C@H](O)[C@@]1(C)C(=O)[C@H](O)C3=C(C)[C@@H](OC(=O)[C@H](O)[C@@H](NC(=O)OC(C)(C)C)c4ccccc4)C[C@@](O)([C@@H](OC(=O)c4ccccc4)[C@H]21)C3(C)C [Docetaxel] + CCCCCCCCCCCC1=C(O)C(=O)C=C(O)C1=O [Embelin] for SF268.
Solution: 1.82

Problem: Identify the measured HSA synergy score of C#Cc1cccc(Nc2ncnc3cc(OCCOC)c(OCCOC)cc23)c1 [Erlotinib] + O=c1[nH]c2ccccc2n1C1CCN(Cc2ccc(-c3[nH]c4cc5ncnc5cc4nc3-c3ccccc3)cc2)CC1 [Akt inhibitor VIII] for SF268.
Solution: 10.1

Problem: Identify the measured HSA synergy score of C=CCc1cccc(/C=N/NC(=O)CN2CCN(Cc3ccccc3)CC2)c1O [PAC-1] + CCOc1nc(NC(=O)Cc2cc(OC)ccc2OC)cc(N)c1C#N [JNK inhibitor VIII] for SF268.
Solution: 5.39

Problem: Identify the measured HSA synergy score of CCC(=O)N1CCN(c2ccc(-n3c(=O)ccc4cnc5ccc(-c6cnc7ccccc7c6)cc5c43)cc2C(F)(F)F)CC1 [Torin1] + CCCCCCCCCCCC1=C(O)C(=O)C=C(O)C1=O [Embelin] for SF268.
Solution: 2.48

Problem: Identify the measured HSA synergy score of CCC(=O)N1CCN(c2ccc(-n3c(=O)ccc4cnc5ccc(-c6cnc7ccccc7c6)cc5c43)cc2C(F)(F)F)CC1 [Torin1] + N#CC(c1ccnc(NCCc2cccnc2)n1)c1nc2ccccc2s1 [AS601245] for SF268.
Solution: 3.85

Problem: Identify the measured HSA synergy score of CO[C@H]1C[C@@H]2CC[C@@H](C)[C@@](O)(O2)C(=O)C(=O)N2CCCC[C@H]2C(=O)O[C@H]([C@H](C)C[C@@H]2CC[C@@H](O)[C@H](OC)C2)CC(=O)[C@H](C)/C=C(\C)[C@@H](O)[C@@H](OC)C(=O)[C@H](C)C[C@H](C)/C=C/C=C/C=C/1C [Rapamycin] + C[C@@H](Oc1cc(-c2cnn(C3CCNCC3)c2)cnc1N)c1c(Cl)ccc(F)c1Cl [Crizotinib] for SF268.
Solution: 8.72

Problem: Identify the measured HSA synergy score of C=CCc1cccc(/C=N/NC(=O)CN2CCN(Cc3ccccc3)CC2)c1O [PAC-1] + Cc1cc([C@@H](C)Nc2ccccc2C(=O)O)c2nc(N3CCOCC3)cc(=O)n2c1 [AZD6482] for SF268.
Solution: 4.9
